Target: WT EGFR (Wild-Type EGFR) (Homo sapiens, UniProt P00533)
Construct: purchased SignalChem
Sequence (P00533 25-1210): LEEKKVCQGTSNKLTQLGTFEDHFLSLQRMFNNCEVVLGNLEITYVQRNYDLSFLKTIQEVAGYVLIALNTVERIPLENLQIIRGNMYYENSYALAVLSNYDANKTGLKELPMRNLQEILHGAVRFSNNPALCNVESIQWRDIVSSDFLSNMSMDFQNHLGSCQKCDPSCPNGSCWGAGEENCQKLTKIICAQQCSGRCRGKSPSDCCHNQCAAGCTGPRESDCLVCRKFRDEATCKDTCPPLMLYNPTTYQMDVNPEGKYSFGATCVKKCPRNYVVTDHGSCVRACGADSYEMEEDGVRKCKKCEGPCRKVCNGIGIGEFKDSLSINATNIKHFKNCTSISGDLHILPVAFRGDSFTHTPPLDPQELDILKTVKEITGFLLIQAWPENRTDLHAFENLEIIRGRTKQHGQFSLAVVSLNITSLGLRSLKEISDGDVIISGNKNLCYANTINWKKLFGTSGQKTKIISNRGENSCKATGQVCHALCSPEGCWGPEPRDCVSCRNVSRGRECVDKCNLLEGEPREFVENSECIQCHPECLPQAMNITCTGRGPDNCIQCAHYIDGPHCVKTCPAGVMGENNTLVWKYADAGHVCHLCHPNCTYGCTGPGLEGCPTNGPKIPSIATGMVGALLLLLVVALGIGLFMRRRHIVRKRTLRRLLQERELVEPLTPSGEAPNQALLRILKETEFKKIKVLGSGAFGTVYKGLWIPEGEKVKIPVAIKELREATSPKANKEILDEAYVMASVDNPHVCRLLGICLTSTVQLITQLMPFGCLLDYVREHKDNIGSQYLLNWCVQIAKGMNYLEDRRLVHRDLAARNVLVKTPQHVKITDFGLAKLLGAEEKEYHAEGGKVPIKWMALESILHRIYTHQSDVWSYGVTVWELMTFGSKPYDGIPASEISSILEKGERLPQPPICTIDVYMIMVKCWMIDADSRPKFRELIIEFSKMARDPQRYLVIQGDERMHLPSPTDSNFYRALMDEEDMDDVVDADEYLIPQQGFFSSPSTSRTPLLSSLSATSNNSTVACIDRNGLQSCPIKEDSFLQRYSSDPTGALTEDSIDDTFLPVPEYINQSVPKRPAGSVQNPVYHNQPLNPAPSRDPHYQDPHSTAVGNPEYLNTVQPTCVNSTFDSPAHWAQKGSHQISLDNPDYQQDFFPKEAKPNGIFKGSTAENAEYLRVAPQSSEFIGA
Assay: Inhibition of WT EGFR kinase activity (ADP-Glo)
Assay type: biochemical
property-name: IC50 (nM)

Illustrative cases are given below, each with its answer.
* C=CC(=O)Nc1cc(Nc2nccc(C(=O)c3ccc(NCCO)cc3)n2)c(OC)cc1N(C)CCN(C)C.O=CO [EGFR_3365_106, formate] | 108
* C=CC(=O)Nc1cc(Nc2nccc(C(=O)c3cccc(F)c3)n2)c(OC)cc1N(C)CCN(C)C | 170
* C=CC(=O)Nc1cc(Nc2nccc(C(=O)c3ccc(N4CCN(C)CC4)cc3OC)n2)c(OC)cc1N(C)CCN(C)C | 30.9

I. C=CC(=O)Nc1cc(Nc2cc(C(=O)c3ccc(OC)cc3)ccn2)c(OC)cc1N(C)CCN(C)C
II. C=CC(=O)Nc1cc(Nc2nccc(C(=O)c3ccc(NCCOC)cc3)n2)c(OC)cc1N(C)CCN(C)C
Which record would sort first by descending IC50, I or II ? Please reply using the label of the selected record. II
(II: 109 nM, I: 50.8 nM)

P. C=CC(=O)Nc1cc(Nc2cc(C(=O)c3ccc(OCC(C)C)cc3)ccn2)c(OC)cc1N(C)CCN(C)C
Q. C=CC(=O)Nc1cc(Nc2nccc(C(=O)c3ccc(N4CCCC4)cc3)n2)c(OC)cc1N(C)CCN(C)C
# min-compare on IC50 between P and Q Please reply using the label of the selected record. Q
(Q: 22.9 nM, P: 49.9 nM)

P. C=CC(=O)Nc1cc(Nc2nccc(C(=O)c3ccc(N4CCC(N(C)C)CC4)cc3OC)n2)c(OC)cc1N(C)CCN(C)C
Q. C=CC(=O)Nc1cc(Nc2nccc(C(=O)c3ccc(N4CC[C@@H](O)C4)cc3)n2)c(OC)cc1N(C)CCN(C)C
R. C=CC(=O)Nc1cc(Nc2nccc(C(=O)c3ccc(OCC)cc3OCC)n2)c(OC)cc1N(C)CCN(C)C
Sort the compounds on IC50; start with the lowest figure. Respond with the label ranking, as requested. P, Q, R
(P: 24.5 nM, Q: 43.4 nM, R: 93.9 nM)
